Measured values drawn from ChEMBL document CHEMBL3046596 for this set.

tested on: Mus musculus; assay: Antinociceptive activity in Mus musculus Swiss albino (mouse) assessed as increase in reaction (paw licking and jumping) latency to thermal stimulus at 100 mg/kg, ip administered 30 min before experimental session by hot plate test; format: functional; settings: route intraperitoneal
resultType: Activity (%)

compound: Nn1c(CCc2ccc(O)cc2)nnc1SCC(=O)N1N=C(c2cccs2)CC1c1ccc(F)cc1 (stereo unspecified)
resultType: Activity
measValue: 89
--
compound: Cc1ccc(C2CC(c3cccs3)=NN2C(=O)CSc2nnc(CCc3ccc(O)cc3)n2N)cc1 (stereo unspecified)
resultType: Activity
measValue: 50.3
--
compound: Nn1c(CCc2ccc(O)cc2)nnc1SCC(=O)N1N=C(c2cccs2)CC1c1ccccc1 (stereo unspecified)
resultType: Activity
measValue: 79.4
--
compound: Nn1c(CCc2ccc(O)cc2)nnc1SCC(=O)N1N=C(c2cccs2)CC1c1ccc2c(c1)OCO2 (stereo unspecified)
resultType: Activity
measValue: 45.1
--
compound: Nn1c(CCc2ccc(O)cc2)nnc1SCC(=O)N1N=C(c2cccs2)CC1c1ccc(Cl)cc1 (stereo unspecified)
resultType: Activity
measValue: 81.6
--
compound: CN(C)c1ccc(C2CC(c3cccs3)=NN2C(=O)CSc2nnc(CCc3ccc(O)cc3)n2N)cc1 (stereo unspecified)
resultType: Activity
measValue: 38.5
